Reference source: patent US6596712B2

# experimentNotes: Pharmacokinetic study, half-life
# measurementSetup: in vivo, ip; intraperitoneally, dose 240 μg; 10 mg/kg
endpointLabel: half-life

CC(C)[C@@H](CC[C@@H](C)[C@H]1CC[C@H]2[C@@H]3[C@H](O)C[C@H]4C[C@@H](NCCCNCCCCN)CC[C@]4(C)[C@H]3CC[C@]12C)OS(=O)(=O)O ... 2.87 h
